System: HL-60(TB) leukemia
Assay: NCI tumour cell line growth inhibition, 48 h; in the data active = GI50 below about 0.43 µM; inactive = the rest
Permitted responses: label 1 = active, label 0 = inactive

molecule | assay.system | classification
Cc1nnc2ccnn2c1C | HL-60(TB) leukemia | label 0
COc1ccc(C(c2cc(OC)c(OC)c(OC)c2)n2cncn2)cc1O (stereo not drawn) | HL-60(TB) leukemia | label 1
CC(C)[C@@H]1NC(=O)[C@]2(C)CSC(=N2)c2ccnc(c2)CNC(=O)C[C@@H](/C=C/CCS)OC1=O | HL-60(TB) leukemia | label 0

Just curious, what result did `Cc1cc2c(cc1C)[n+](=O)c(C(=O)c1ccccc1)c(C(F)F)n2[O-]` get here?
label 0

Just curious, what result did `COc1ccc2ncnc(Nc3ccc(OCc4ccccc4)cc3)c2c1` get here?
label 0

Just curious, what result did `COC(=O)/C=C/c1cc(OC(C)=O)c2c(c1)[C@@H](C(=O)OC)[C@H](c1ccc(OC(C)=O)c(OC(C)=O)c1)O2` get here?
label 1

Just curious, what result did `COc1cc(-c2nn(-c3cccc(NC(=O)c4ccccc4)c3)cc2-c2ccncc2)ccc1Cl` get here?
label 1

Just curious, what result did Cc1ccc(NC2=C3CCCCC3OC2=O)cc1 (stereo not drawn) get here?
label 0

Just curious, what result did COc1cc2c(cc1OC)-c1cc(OC)c(OC)cc1C(CN(C)C)C2 (stereo not drawn) get here?
label 0

Just curious, what result did `NC(=S)N/N=C1\c2cc(Cl)ccc2-c2c1cc(Cl)cc2[N+](=O)[O-]` get here?
label 0

Just curious, what result did `Cc1ccc(-c2nc(N3CCNCC3)c3oc(-c4ccc(C)cc4)nc3n2)cc1` get here?
label 0

Just curious, what result did CN(C)CC(O)c1ccc(/C=C/c2ccc(Cl)cc2)cc1 (stereo not drawn) get here?
label 0

====

System: K-562 leukemia
Assay: NCI tumour cell line growth inhibition, 48 h
property: TGI

compound | property | reported
[O-][Cl+3]([O-])([O-])[O-].[O]=[Ru]=[O].c1ccc(-c2ccccn2)nc1.c1ccc(-c2ccccn2)nc1 | TGI | > 100 µM
O=C(NC1CCCCC1)NS(=O)(=O)c1ccc(N2N=C3c4ccccc4CC3C2c2ccc(Cl)cc2)cc1 (stereo not given) | TGI | 22.4 µM
C[C@]12[C@@H]3CC[C@H]1[C@@H](O)C(=O)N2CC3 | TGI | > 100 µM
O=C1OC(c2ccccc2)=N/C1=C\c1ccc([N+](=O)[O-])cc1 | TGI | > 100 µM

Value (TGI, K-562 leukemia) for record `O=C(O)C(Cl)Cl` = > 10000 µM

====

// values below are reported TGI
Tested on: DMS 273 small cell lung
Assay: NCI tumour cell line growth inhibition, 48 h

Here's what some known entries look like.
compound | TGI
COc1ccc(/C=C/COC(C)=O)cc1OC | > 100 µM
O=C(CC1Sc2ccccc2NC1=O)Nc1ccccc1[N+](=O)[O-] (stereo unspecified) | > 100 µM
N#CC(C(=O)CCC(=O)Nc1ccc(Cl)c(Cl)c1)c1ccccc1 (stereo unspecified) | > 100 µM
COc1cc(-c2cccs2)sc1-c1cccs1 | > 100 µM
O=C(NC1C=CCC2C(=O)N(c3ccccc3)C(=O)C12)OCc1ccccc1 (stereo unspecified) | > 100 µM
CC1(C)CC(c2c[nH]c3ccccc23)=CC2=Nc3ccccc3C21O (stereo unspecified) | > 100 µM
CCOC(=O)/C(=C/c1ccc(OC)cc1)N(CC)CC | > 100 µM
CC(=O)OCCOCNC(=S)N/N=C/c1ccc([N+](=O)[O-])o1 | > 100 µM
COc1ccc2c(c1)[n+]([O-])c(C(N)=O)c(N)[n+]2[O-] | > 100 µM
CCCCCCCCCCCCNC(=S)OC | 29.3 µM

Value (TGI, DMS 273 small cell lung) for record CON(C)C(=O)C(Cc1ccccc1)NC(=O)OCc1ccccc1 (stereo unspecified) = > 100 µM

Origin of the recorded values: PubChem BioAssay (NCI)
